Data origin: PubChem BioAssay (NCI)

System: HOP-92 NSCLC
Assay: NCI tumour cell line growth inhibition, 48 h
MEASUREMENT_NAME: TGI (µM)
Answer format: numeric, µM implied, no suffix.

stdin: Entry `CCOC(=O)c1c2c(c(O)c3ccccc3c(O)n(-c3ccc(C)cc3)c1C)C(=O)C=CC2=O` , system HOP-92 NSCLC: what TGI was measured?
stdout: 56.9

stdin: # get_value(readout= TGI, system= HOP-92 NSCLC) for c1ccc2cc(OCC3CO3)c(OCC3CO3)cc2c1 (stereo not given)
stdout: 23.5

---

System: SF-268 CNS
Experiment: NCI tumour cell line growth inhibition, 48 h
Assign GI50 to each entry below.

stdin: Please give the measured GI50 for this compound: COc1ccccc1CNC(=O)C1c2ccccc2C(=O)N(CC(C)C)C1c1cccs1 (stereo not given)
stdout: 30.6 µM

stdin: # input compound: `O=C(O)c1ccc(-c2ccc(C(=O)O)cc2I)c(I)c1` ; wanted: its GI50
stdout: > 100 µM

stdin: Fill blank: measured GI50 of the compound `C#CCOc1ccc2ncnc(Nc3ccc(NC(=O)CCl)cc3)c2c1` is ____.
stdout: 4.67 µM

stdin: Fill in the blank: the reported GI50 of `CC(F)(F)c1cc(F)ccc1-c1sc2cc(O)ccc2c1Oc1ccc(/C=C/C(=O)O)cc1` is ____.
stdout: 7.31 µM

stdin: Given the compound `COc1cccc2c1cc([N+](=O)[O-])c1c(C(=O)O)cc3c(c12)OCO3` , what is its reported GI50?
stdout: 29 µM
